experiment: Aqueous vapor stress (high humidity stress, about 85% RH), deliquescence; type: physicochemical; settings: about 85% RH, about 24 h where stated
Counter-ions that a name gives are not always drawn.
reported-endpoint: deliquescence when stressed at about 85% RH

1. Cc1noc(C)c1-c1cc(C(O)(c2ccccn2)c2ccccn2)c2nc(C3CC3)[nH]c2c1 [Compound I tartrate Material A] | does not deliquesce
2. Cc1noc(C)c1-c1cc(C(O)(c2ccccn2)c2ccccn2)c2nc(C3CC3)[nH]c2c1 [Compound I gentisate Material A] | does not deliquesce

* * *

test: Kinetic aqueous solubility / solubility in water of salt and co-crystal forms; assay type: physicochemical; conditions: aqueous
reported-endpoint: kinetic aqueous solubility

1. Cc1noc(C)c1-c1cc(C(O)(c2ccccn2)c2ccccn2)c2nc(C3CC3)[nH]c2c1 [Compound I edisylate Material A] | about 1 mg/mL
2. Cc1noc(C)c1-c1cc(C(O)(c2ccccn2)c2ccccn2)c2nc(C3CC3)[nH]c2c1 [Compound I besylate Material A] | about 1 mg/mL

* * *

assay: Kinetic aqueous solubility / solubility in water of salt and co-crystal forms; assay type: physicochemical; details: aqueous
Counter-ions that a name gives are not always drawn.
reported-endpoint: kinetic aqueous solubility

1) Cc1noc(C)c1-c1cc(C(O)(c2ccccn2)c2ccccn2)c2nc(C3CC3)[nH]c2c1 [Compound I tosylate Form I] | about 3 mg/mL
2) Cc1noc(C)c1-c1cc(C(O)(c2ccccn2)c2ccccn2)c2nc(C3CC3)[nH]c2c1 [Compound I phosphate Form I] | about 3 mg/mL
3) Cc1noc(C)c1-c1cc(C(O)(c2ccccn2)c2ccccn2)c2nc(C3CC3)[nH]c2c1 [mixture of Compound I sulfate Material A and Compound I sulf] | about 4 mg/mL
4) Cc1noc(C)c1-c1cc(C(O)(c2ccccn2)c2ccccn2)c2nc(C3CC3)[nH]c2c1 [Compound I sulfate Material B] | about 4 mg/mL

* * *

Assay: Aqueous vapor stress (high humidity stress, about 85% RH), deliquescence
Assay type: physicochemical
Conditions: about 85% RH, about 24 h where stated
Method: Crystalline forms of Compound I were analyzed by at least one of X-ray powder diffraction (XRPD), differential scanning calorimetry (DSC), thermogravimetric analysis (TGA), dynamic vapor sorption (DVS), solution proton nuclear magnetic resonance spectroscopy (^1H NMR), KF titration, and aqueous vapor stress experiments. […]
reported-endpoint: deliquescence when stressed at about 85% RH

1. Cc1noc(C)c1-c1cc(C(O)(c2ccccn2)c2ccccn2)c2nc(C3CC3)[nH]c2c1 [Compound I napsylate Material A] | does not deliquesce
2. Cc1noc(C)c1-c1cc(C(O)(c2ccccn2)c2ccccn2)c2nc(C3CC3)[nH]c2c1 [Compound I xinafoate Form I] | does not deliquesce

* * *

assay: Dynamic vapor sorption (DVS) moisture uptake; format: physicochemical; settings: classification in words
reported-endpoint: hygroscopicity (DVS analysis)

1) Cc1noc(C)c1-c1cc(C(O)(c2ccccn2)c2ccccn2)c2nc(C3CC3)[nH]c2c1 [Compound I Form I] | slightly hygroscopic
2) Cc1noc(C)c1-c1cc(C(O)(c2ccccn2)c2ccccn2)c2nc(C3CC3)[nH]c2c1 [Compound I phosphate Form III] | slightly hygroscopic
